Value source: patent US10308639B2

- target or system: PI3Kδ (Homo sapiens, UniProt O00329)
- Construct: made in house
- Sequence (O00329 whole entry): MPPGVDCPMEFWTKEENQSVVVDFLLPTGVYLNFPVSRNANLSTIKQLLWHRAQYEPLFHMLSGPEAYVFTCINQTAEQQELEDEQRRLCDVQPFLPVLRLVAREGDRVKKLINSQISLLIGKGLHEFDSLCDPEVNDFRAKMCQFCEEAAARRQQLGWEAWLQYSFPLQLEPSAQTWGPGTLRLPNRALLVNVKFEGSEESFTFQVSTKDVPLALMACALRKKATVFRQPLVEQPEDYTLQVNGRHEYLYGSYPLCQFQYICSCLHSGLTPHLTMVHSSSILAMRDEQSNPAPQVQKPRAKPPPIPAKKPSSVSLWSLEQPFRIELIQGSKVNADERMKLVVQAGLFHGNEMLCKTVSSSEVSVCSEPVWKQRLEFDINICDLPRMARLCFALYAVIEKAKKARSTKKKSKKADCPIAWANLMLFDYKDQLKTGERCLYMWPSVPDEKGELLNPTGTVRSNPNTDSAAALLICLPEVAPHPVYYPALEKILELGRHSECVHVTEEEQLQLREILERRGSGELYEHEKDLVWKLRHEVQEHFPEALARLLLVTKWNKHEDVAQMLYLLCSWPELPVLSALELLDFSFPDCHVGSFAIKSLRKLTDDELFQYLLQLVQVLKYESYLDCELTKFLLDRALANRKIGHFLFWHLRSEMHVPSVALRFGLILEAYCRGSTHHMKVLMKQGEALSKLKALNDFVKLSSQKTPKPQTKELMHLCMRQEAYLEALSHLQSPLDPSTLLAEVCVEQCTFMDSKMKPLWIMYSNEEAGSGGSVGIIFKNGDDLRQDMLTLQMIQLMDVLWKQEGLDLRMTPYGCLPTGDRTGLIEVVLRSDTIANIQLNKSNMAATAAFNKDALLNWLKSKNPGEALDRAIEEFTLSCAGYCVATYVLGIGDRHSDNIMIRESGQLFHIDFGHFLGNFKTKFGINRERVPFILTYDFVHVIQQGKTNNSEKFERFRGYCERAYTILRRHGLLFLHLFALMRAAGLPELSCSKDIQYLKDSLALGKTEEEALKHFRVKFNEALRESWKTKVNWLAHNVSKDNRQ
- Sequence (P27986 whole entry partner): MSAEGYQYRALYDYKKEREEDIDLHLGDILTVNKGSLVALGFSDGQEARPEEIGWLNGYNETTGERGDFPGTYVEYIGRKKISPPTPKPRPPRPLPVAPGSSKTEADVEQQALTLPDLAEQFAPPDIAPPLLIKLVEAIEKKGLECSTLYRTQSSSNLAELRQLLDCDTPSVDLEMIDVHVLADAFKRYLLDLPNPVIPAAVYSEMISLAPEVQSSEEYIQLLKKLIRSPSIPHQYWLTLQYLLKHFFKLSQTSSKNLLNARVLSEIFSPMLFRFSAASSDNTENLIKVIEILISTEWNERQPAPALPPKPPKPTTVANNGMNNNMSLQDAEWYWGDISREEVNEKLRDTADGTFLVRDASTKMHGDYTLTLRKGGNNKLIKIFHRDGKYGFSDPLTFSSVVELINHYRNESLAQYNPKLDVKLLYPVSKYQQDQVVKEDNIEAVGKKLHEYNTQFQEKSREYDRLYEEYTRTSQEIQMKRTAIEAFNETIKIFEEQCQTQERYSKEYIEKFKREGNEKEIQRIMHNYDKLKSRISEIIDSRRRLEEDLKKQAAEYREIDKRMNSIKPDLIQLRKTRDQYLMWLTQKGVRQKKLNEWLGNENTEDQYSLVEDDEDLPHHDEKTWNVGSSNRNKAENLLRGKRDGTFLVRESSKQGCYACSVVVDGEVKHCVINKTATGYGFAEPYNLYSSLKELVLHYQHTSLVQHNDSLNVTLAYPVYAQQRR
- procedure text: TR-FRET enzymatic activity assay, PI3Kδ
- Assay type: biochemical
- recorded conditions: Table 2a; same assay
pIC50: −log10 of the molar value.
Decide by pIC50: equal to or exceeding 8 means 1 (yes), less means 0 (no).

Could you verify whether the entry `C[C@H](Nc1nc(N)nc(N)c1Cl)c1nc2c(Cl)cc(F)cc2c(=O)n1-c1c[nH]cn1` shows pIC50 of no less than 8?
0 (no)

# check: pIC50 of `C[C@H](Nc1nc(N)nc(N)c1C#N)c1nc2cc(Cl)ccc2c(=O)n1-c1cc[nH]n1` is greater than or equal to 8
0 (no)

Confirm if pIC50 reported for the compound `N#Cc1c(N)nc(N)nc1N[C@H](c1nc2c(Cl)cc(F)cc2c(=O)n1-c1cn[nH]c1)C1CC1` is 8 or above.
1 (yes)

Please indicate if the recorded pIC50 for `C[C@H](Nc1nc(N)nc(N)c1Cl)c1nc2cccc(Cl)c2c(=O)n1-c1cn[nH]c1` meets or exceeds 8.
1 (yes)

Decide: is the reported value of pIC50 for `C[C@H](Nc1nc(N)nc(C(F)F)c1C#N)c1nc2c(Cl)cccc2c(=O)n1-c1cc[nH]n1` equal to or greater than 8?
1 (yes)

Test whether the compound `N#Cc1c(N)nc(N)nc1N[C@H](c1nc2cc(F)cc(Cl)c2c(=O)n1-c1cc[nH]n1)C1CC1` records pIC50 of 8 or higher.
1 (yes)

Hi, just wondering whether `C[C@H](Nc1nc(N)nc(N)c1C#N)c1nc2ccc(F)c(Cl)c2c(=O)n1-c1cc[nH]n1` shows pIC50 of 8 or higher.
1 (yes)

Entry `Cc1n[nH]cc1-n1c([C@H](C)Nc2nc(N)nc(N)c2C#N)nc2c(Cl)ccc(Cl)c2c1=O` : is its pIC50 no less than 8?
1 (yes)

Reported pIC50 at or above 8? `N#Cc1c(N)nc(N)nc1N[C@H](c1nc2c(F)cc(F)cc2c(=O)n1-c1cc[nH]n1)C1CC1`
1 (yes)

Could you please find out whether `Cc1n[nH]cc1-n1c([C@H](C)Nc2nc(N)nc(N)c2Cl)nc2c(Cl)ccc(Cl)c2c1=O` has pIC50 that meets 8 or exceeds it?
0 (no)

Has `CCC[C@H](Nc1nc(N)nc(N)c1C#N)c1nc2ccc(F)c(Cl)c2c(=O)n1-c1cc[nH]n1` a recorded pIC50 greater than or equal to 8?
1 (yes)

Kindly determine if pIC50 recorded for `Cc1c[nH]nc1-n1c([C@@H](Nc2nc(N)nc(Cl)c2C#N)C2CC2)nc2c(C#N)cccc2c1=O` is above or exactly 8.
0 (no)

Given the entry `CCC[C@H](Nc1nc(N)nc(N)c1C#N)c1nc2cccc(Cl)c2c(=O)n1-c1c[nH]cn1` , answer whether its pIC50 meets or surpasses 8.
1 (yes)

Decide: pIC50 of `N#Cc1c(N)nc(N)nc1N[C@H](c1nc2c(C(F)(F)F)cccc2c(=O)n1-c1cc[nH]n1)C1CC1` >= 8?
1 (yes)
